Reference source for all entries: patent US20110091971A1

Test system: H1 or H9 human embryonic stem cells
test name: Activin A bioassay: differentiation of human embryonic stem cells to definitive endoderm, cell number and SOX17 intensity by high content analysis (96-well, four days)
Assay type: cell-based
particulars: supernatant concentration 10x, assay dilution 1:20; control = R&D Sys Activin A 100 ng/ml on same plate

| molecule | Sox 17 Intensity % of control (%) |
| --- | --- |
| ACTN87: activin A variant peptide, SEQ ID 88 (protein) GLECDGKVNICCKKQSFGQAKDIGWNDWIIAPSGYHGGSCSGECPSHIAGTSGSSLSFHSTVINHYRMRGHSPFANLKSCCSPTKLRPMSMLYYDDGQNIIKKDIQNMVVEECGCT | 3.4 |
| ACTN41: activin A variant peptide, SEQ ID 42 (protein) GLECDGKVNLCCKKQDFVSFKDIGWNDWIIAPSGYHANSCSGLCPSHIAGTSGSSLSFHSTVINHYRMRGHSPFSDRGACCIPTKLRPMSMLYYDDGQNIIKKDIQNMIVEECGCS | 1.6 |
| ACTN45: activin A variant peptide, SEQ ID 46 (protein) GLECDGKVNTCCKKQNFVSFKDIGWNDWIIAPSGYHANECSGKCPSHIAGTSGSSLSFHSTVINHYRMRGHSPFANMGACCIPTKLRPMSMLYYDDGQNIIKKDIQNMIVEECGCS | 1.2 |
| ACTN33: activin A variant peptide, SEQ ID 34 (protein) GLECDGKVNLCCKKQNFVSFKDIGWNDWIIAPSGYHANECMGKCPSHIAGTSGSSLSFHSTVINHYRMRGHSPFSDMGACCIPTKLRPMSMLYYDDGQNIIKKDIQNMIVEECGCS | 9.7 |
| ACTN4: activin A variant peptide, SEQ ID 5 (protein) GLECDGKVNLCCKKQLFVSFKDIGWNDWIIAPSGYHANHCSGLCPSHIAGTSGSSLSFHSTVINHYRMRGHSPFSDMGACCVPTKLRPMSMLYYDDGQNIIKKDIQNMIVEECGCS | 129.7 |
| ACTN78: activin A variant peptide, SEQ ID 79 (protein) GLECDGKVNICCKKQLFGQAKDIGWNDWIIAPSGYHGGGCSGECPSHIAGTSGSSLSFHSTVINHYRMRGHSPVANLKSCCSPTKLRPMSMLYYDDGQNIIKKDIQNMVVEECGCT | 4.4 |
| ACTN14: activin A variant peptide, SEQ ID 15 (protein) GLECDGKVNLCCKKQHFVSFKDIGWNDWIIAPSGYHANRCDGLCPSHIAGTSGSSLSFHSTVINHYRMRGHSPFAQMGSCCVPTKLRPMSMLYYDDGQNIIKKDIQNMIVEECGCS | 14.1 |
